target: T1, Recombinant soluble E protein (0.8E-His) from DENV-1 (DENV-1, UniProt P27909 281-675)
T1 construct: also called DENV-1 E protein; DV1
measuredEndpoint: Kd (nM)
Give bare numbers, in nM.

Use these answered entries as a reference point.
binder	Kd / nM
DG_3CH953-SG182/3CL666-SK1 (antibody, V domains shown) VH: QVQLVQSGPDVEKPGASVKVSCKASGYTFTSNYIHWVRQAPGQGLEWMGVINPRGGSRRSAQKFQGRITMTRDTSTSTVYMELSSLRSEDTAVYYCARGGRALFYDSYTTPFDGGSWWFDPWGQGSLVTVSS VL: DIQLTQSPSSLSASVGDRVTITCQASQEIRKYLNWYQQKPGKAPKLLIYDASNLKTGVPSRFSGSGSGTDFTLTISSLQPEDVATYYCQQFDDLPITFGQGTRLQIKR	1.69
DG_3CH987-SG182/3CL012-SK1 (antibody, V domains shown) VH: QVQLVQSGPDVEKPGASVKVSCKASGYTFTSYYIHWVRQAPGQGLEWMGVINPRGGSRRSAQKFQGRITMTRDTSTSTVYMELSSLRSEDTAVYYCARGGRALFYDSYTTPFDGGSWWFDPWGQGSLVTVSS VL: DIQLTQSPSSLSASVGDRVTFTCQASQDIRKYLNWYQQKPGKAPKLLIYDASNLKTGVPSRFSGSGSGTDFTFTISSLQPEDVATYYCQQFEDLPITFGQGTRLQIKR	1.42

Next:
Record request: Kd value, item DG_3CH1046-SG182/3CL633-SK1 (antibody, V domains shown) VH: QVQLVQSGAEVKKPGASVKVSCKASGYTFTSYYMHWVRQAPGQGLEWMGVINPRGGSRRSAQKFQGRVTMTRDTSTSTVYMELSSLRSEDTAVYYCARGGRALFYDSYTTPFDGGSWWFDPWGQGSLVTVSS VL: DIQLTQSPSSLSASVGDRVTITCQASQDIRKYLNWYQQKPGKAPKLLIYDASNLKTGVPSRFSGSGSGTDFTLTISSLQPEDVATYYCQQFDDLPITFGQGTRLQIKR
1.64

Origin of values: patent US20190218277A1
